Target: T1, glucagon receptor (target of the KD / T½ of Tables 1A, 1B and 2B) (Homo sapiens (Human), UniProt P47871 26-136)
T1 construct: not shown: Human Fc carrier (and any linker) of the ECD-Fc fusion
T1 sequence (P47871 26-136 limits assumed): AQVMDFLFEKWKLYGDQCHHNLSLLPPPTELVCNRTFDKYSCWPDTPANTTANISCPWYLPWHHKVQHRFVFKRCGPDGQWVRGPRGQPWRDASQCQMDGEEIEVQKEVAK
Assay: not stated; 25° C.
Listed binders paired with reported T½
Recorded Endpoint: T½

1) H2-A11 (antibody, V domains shown) VH: QVQLVQSGAEVKKPGASVKVSCKASGYTFTDFSVHWVRQAPGQGLEWMGWINTEYDFTSYADDFKGRVTMTRDTSTSTVYMELSSLRSEDTAVYYCVKSRGWSYGPPDYWGQGTTVTVSS VL: DIQMTQSPSSLSASVGDRVTITCRASQNIRTAVVWYQQKPGKAPKLLIYLATNRHSGVPSRFSGSGSGTDFTFTISSLQPEDIATYYCLQHWTYPFSFGGGTKLEIK	26.3 min
2) H2-C8 (antibody, V domains shown) VH: QVQLVQSGAEVKKPGASVKVSCKASGYTFTDFSVHWVRQAPGQGLEWMGWINTETRGTSYADDFKGRVTMTRDTSTSTVYMELSSLRSEDTAVYYCVKSRGWSYGPPDYWGQGTTVTVSS VL: DIQMTQSPSSLSASVGDRVTITCRASQNIRTAVVWYQQKPGKAPKLLIYLATNRHSGVPSRFSGSGSGTDFTFTISSLQPEDIATYYCLQHWTYPFSFGGGTKLEIK	20.6 min
3) H3-C10 (antibody, V domains shown) VH: QVQLVQSGAEVKKPGASVKVSCKASGYTFTDFSVHWVRQAPGQGLEWMGWINTETDETSYADDFKGRVTMTRDTSTSTVYMELSSLRSEDTAVYYCVKSLYWSYGPPDYWGQGTTVTVSS VL: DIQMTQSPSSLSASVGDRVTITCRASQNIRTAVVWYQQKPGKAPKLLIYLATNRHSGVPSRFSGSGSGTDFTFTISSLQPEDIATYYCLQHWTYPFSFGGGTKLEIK	3.68 min

Taken from patent US20160311912A1.
